Test system: SF-539 CNS
measurement-notes: NCI tumour cell line growth inhibition, 48 h
property-label: TGI

In the examples that follow, each entry is paired with its recorded TGI.
Noted TGI for CC1=NN(c2nc(N)nc(-c3sccc3N)n2)C(C)(C)C1 , tested on SF-539 CNS: > 100 µM

Noted TGI for COC(=O)c1ccccc1NC(=O)C(=O)NNC(=O)c1ccncc1 , tested on SF-539 CNS: > 100 µM

Noted TGI for COc1ccc(/C=C\c2cc(OC)c(O[Si](C)(C)C(C)(C)C)c(OC)c2)cc1 , tested on SF-539 CNS: > 100 µM

Noted TGI for CC[C@]1(O)C(=O)OCc2c1cc1n(c2=O)Cc2cc3c(N)cccc3nc2-1 , tested on SF-539 CNS: > 100 µM

Noted TGI for COc1cc(CC(C)NC(C)=O)cc(OC)c1 (stereo not drawn) , tested on SF-539 CNS: > 100 µM

Noted TGI for Cc1cc(S(=O)(=O)/N=C(/C(=C=[N-])C#N)[n+]2ccc(N(C)C)cc2)c(SCC(=O)O)cc1Cl , tested on SF-539 CNS: > 100 µM

Noted TGI for N#CC1(O)CCCCCCCCCCC1 , tested on SF-539 CNS: > 100 µM

Noted TGI for COc1ccc(-c2c3c(n(C4OC(CO)C(O)C(O)C4O)c(=S)c2C#N)CCC3)cc1 (stereo not drawn) , tested on SF-539 CNS: > 100 µM

Noted TGI for COC1OC(CO)C(O)C1N (stereo not drawn) , tested on SF-539 CNS: > 100 µM

Noted TGI for COC(=O)[C@@H]1CCCCC[C@H]2C(CO)=C(C)C(=O)C12 (stereo partly drawn) , tested on SF-539 CNS: > 100 µM

Please give TGI for each item listed below.
1. NCCCCNc1ccc2c(=O)[nH][nH]c(=O)c2c1
2. COC(=O)[C@]12CCC(C)[C@H](C)[C@H]1C1=CCC3[C@@]4(C)CC[C@H](OC(C)=O)C(C)(C)C4CC[C@@]3(C)C1(C)C(O)C2 (stereo partly drawn)

result:
["> 100 µM", "> 100 µM"]

Noted TGI for O=P(O)(O)c1ccccc1Oc1ccccc1 , tested on SF-539 CNS: > 100 µM

Numbers sourced from PubChem BioAssay (NCI).
